Measurement record for Dihydroorotate dehydrogenase (quinone), mitochondrial (Homo sapiens); quantity recorded: IC50.

Under Dihydroorotate dehydrogenase (quinone), mitochondrial (Homo sapiens): report IC50 of Cc1cc(NC2CCc3cc(Cl)ccc3C2)n2nc(C(C)(F)F)nc2n1 (centres undefined) .
> 100 µM

Under Dihydroorotate dehydrogenase (quinone), mitochondrial (Homo sapiens): report IC50 of COc1ccc2c(c1)CC(Nc1cc(C)nc3nc(C(C)(F)F)nn13)CC2 (centres undefined) .
> 100 µM

Under Dihydroorotate dehydrogenase (quinone), mitochondrial (Homo sapiens): report IC50 of Cc1cc(NC2CCc3ccc(Cl)cc3C2)n2nc(C(F)(F)F)nc2n1 (centres undefined) .
> 50 µM

Under Dihydroorotate dehydrogenase (quinone), mitochondrial (Homo sapiens): report IC50 of Cc1cc(NC2CCc3cc(Br)ccc3C2)n2nc(C(C)(F)F)nc2n1 (centres undefined) .
> 100 µM
